test system: Leishmania major; experiment: Antileishmanial activity against promastigote form of Leishmania major MHOM/IL/81/BNI after 96 hrs by resazurin-based spectrofluorimetric method; assay type: functional, organism-based
Readout label: IC50 (µM)
Write it as a number; the unit µM goes unstated.

Complete the entry with IC50 for `Fc1ccc(-c2nc3ccccn3c2-c2ccccc2)cc1`
23

Item `CCOC(=O)c1ccc(-c2c(-c3ccccc3)nc3ccccn23)cc1` : provide IC50
5.2

====

tested on: HeLa; assay: Cytotoxicity against human HeLa cells after 96 hrs by resazurin-based spectrofluorimetric method; assay type: cell-based
Readout label: pIC50
For clarity, pIC50 is expressed as the negative log10 of concentration in mol/L.

// solved cases for pIC50 follow
Fc1ccc(-c2nc3ccccn3c2-c2cccnc2)cc1 4.06
Fc1ccccc1-c1nc2ccccn2c1-c1ccccc1 4.74
Oc1ccc(-c2c(-c3ccccc3)nc3ccccn23)cc1 4.80
Clc1cccc(-c2nc3ccccn3c2-c2ccccc2)c1 5.30
Fc1ccccc1-c1nc2ccccn2c1-c1cccnc1 4.54

Using known records, supply pIC50 for `Cc1ccc(-c2c(-c3ccccc3)nc3ccccn23)cc1`
5.40

Hello, please tell me recorded pIC50 for this one: `N=C(N)c1ccc(OCCCCCOc2ccc(C(=N)N)cc2)cc1`
4.82

Specify pIC50 for `Fc1ccc(-c2nc3ccccn3c2-c2ccccc2)cc1` and stop.
4.14

Item `COc1ccc(-c2c(-c3ccccc3)nc3ccccn23)cc1` : provide pIC50
4.85

Consider the compound `NC(=O)c1ccc(-c2c(-c3ccccc3)nc3ccccn23)cc1` and give its recorded pIC50.
4.57

====

assay: Methanol-buffer partition coefficient, log D of the compound by RP-HPLC analysis at pH 4.5; assay type: physicochemical
Readout label: chromatographic logD
Enter the number alone.

Answered cases to consult:
CC(C)(C)C(=O)Oc1ccc(-c2c(-c3ccccc3)nc3ccccn23)cc1 4.04
O=[N+]([O-])c1ccc(-c2c(-c3ccccc3)nc3ccccn23)cc1 3.29

Identify measured chromatographic logD corresponding to `CCOC(=O)c1ccc(-c2nc3ccccn3c2-c2ccccc2)cc1`
4.26

# return recorded chromatographic logD for input `O=[N+]([O-])c1ccc(-c2nc3ccccn3c2-c2ccccc2)cc1`
4.2

Specify measured chromatographic logD for `COc1ccc(-c2c(-c3ccccc3)nc3ccccn23)cc1` .
2.31

Determine its reported chromatographic logD: `COc1ccc(-c2nc3ccccn3c2-c2ccccc2)cc1`
2.04

Provide chromatographic logD value for the following compound: `Cc1ccc(-c2c(-c3ccccc3)nc3ccccn23)cc1`
2.61

# return recorded chromatographic logD for input `Clc1cc(Cl)cc(-c2c(-c3ccccc3)nc3ccccn23)c1`
4.53

Please supply the value of reported chromatographic logD for the item `Clc1cc(Cl)cc(-c2nc3ccccn3c2-c2ccccc2)c1`
5.58

Please report chromatographic logD for the following compound: `Clc1cccc(-c2nc3ccccn3c2-c2ccccc2)c1`
3.91

// Input: `c1ccc(-c2nc3ccccn3c2-c2ccncc2)cc1` . Output its chromatographic logD only.
2.03

State, in one line, measured chromatographic logD of `CCOC(=O)c1ccc(-c2c(-c3ccccc3)nc3ccccn23)cc1`
3.59

Indicate its recorded chromatographic logD; the compound in question is `c1ccc(-c2nc3ccccn3c2-c2ccccc2)cc1`
2.15

====

Measured pIC50 by item
assay: Inhibition of Leishmania major recombinant His-tagged CK1.2 using RRKHAAIGpSAYSITA as substrate and [32gammaP]ATP after 30 mins by scintillation counting
pIC50: −log10 of the molar value.

Clc1cccc(-c2nc3ccccn3c2-c2ccccc2)c1 < 5.00

Given the molecule `COc1ccc(-c2c(-c3ccccc3)nc3ccccn23)cc1` , write its reported pIC50.
5.92
